- Subject of test: T1, human GLP-1 receptor (human, UniProt P43220 24-463)
- T1 construct: whole, on cells; also called hGLP-1R; human glucagon-like peptide-1 receptor
- Procedure details: SPA competition vs [125I]-GLP-1, hGLP-1R membranes
- Procedure: The binding buffer contains 25 mM HEPES, pH 7.4, 2.5 mM CaCl₂, 1 mM MgCl₂, 0.1% (w/v) bacitracin, 0.003% (w/v) TWEEN®-20, and Roche Complete™ Protease Inhibitors without EDTA. Data are analyzed using four-parameter (curve maximum, curve minimum, IC₅₀, Hill slope) nonlinear regression routines (Genedata Screener, version 12.0.4, Genedata AG, Basal, Switzerland). […] Geometric Means are calculated as follows: […]
pKi: −log10 of the molar value.
Hi, to clarify the labels: yes (1) covers pKi from 9 upward, no (0) covers anything below 9.

• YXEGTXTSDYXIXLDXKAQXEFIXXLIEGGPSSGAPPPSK (Aib2, αMeF(2F)6, Aib11, αMeL13, Orn16, K17(Z1), Aib20, D-Glu24, αMeY25, K40(Z1), C-term NH2; Z1=AEEA2-(γ-Glu)-CO-(CH2)10-CH3) = yes (1)
• YXEGTXTSDXXIXLDXKAQXTFIXXLIKGGPSSGAPPPS (Aib2, αMeF(2F)6, 4Pal10, Aib11, αMeL13, Orn16, K17(Z1), Aib20, D-Glu24, αMeY25, K28(Z1), C-term NH2; Z1=AEEA2-(γ-Glu)-CO-(CH2)10-CH3, T at position 21) = yes (1)
• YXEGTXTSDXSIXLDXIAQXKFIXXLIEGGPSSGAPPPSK (Aib2, αMeF(2F)6, 4Pal10, αMeL13, Orn16, Aib20, K21(Z1), D-Glu24, αMeY25, K40(Z1), C-term NH2; Z1=AEEA2-(γ-Glu)-CO-(CH2)12-CO2H) = no (0)

Task: Does pKi meet or surpass 9 for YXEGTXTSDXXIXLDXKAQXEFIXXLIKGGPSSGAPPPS (Aib2, αMeF(2F)6, 4Pal10, Aib11, αMeL13, Orn16, K17(Z1), Aib20, D-Glu24, αMeY25, K28(Z1), C-term NH2; Z1=AEEA-(γ-Glu)-CO-(CH2)12-CO2H) ?
Result: no (0)

Task: Thanks! And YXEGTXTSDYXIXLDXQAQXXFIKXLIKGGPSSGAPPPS (Aib2, αMeF(2F)6, Aib11, αMeL13, Orn16, Aib20, Orn21, K24(Z1), αMeY25, K28(Z1), C-term NH2; Z1=AEEA2-(γ-Glu)-C10_4CP (so in the source)) ?
Result: yes (1)
